TARGET: RORγ ligand binding domain (LBD) (Homo sapiens)
Construct: made in house; host or cells: E. coli BL-21 (BL3), vector pDEST15
Sequence (P51449 269-508 limits assumed): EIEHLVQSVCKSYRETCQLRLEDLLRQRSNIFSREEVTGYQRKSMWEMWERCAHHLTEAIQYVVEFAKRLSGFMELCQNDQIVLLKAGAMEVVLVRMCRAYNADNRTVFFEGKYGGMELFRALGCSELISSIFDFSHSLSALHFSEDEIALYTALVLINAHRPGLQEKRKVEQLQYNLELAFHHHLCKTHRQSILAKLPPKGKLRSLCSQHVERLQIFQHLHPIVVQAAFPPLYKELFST
METHOD: TR-FRET Activity Assay (RORγ-LBD / coactivator peptide interaction)
Assay type: biochemical
SETUP_CONDITIONS: Table 2; read-out: RORγ activity in the TR-FRET Activity Assay (IC50 FRET), Group
Method: This method measures the ability of putative ligands to modulate the interaction between the purified bacterial expressed RORγ ligand binding domain (LBD) and synthetic N-terminally biotinylated peptides which are derived from nuclear receptor coactivator proteins such as but not limited to SRC1 (NcoA1), SRC2 (NcoA2, TIF2), SRC3 (NcoA3), PGC1α, PGC1β, CBP, GRIP1, TRAP220, RIP140. […] This is identical to the “four parameter logistic equation”. The IC50 values are calculated using this equation.
ASSAY_READOUT: IC50

Guide cases for IC50, answers given:
COMPOUND	IC50
CC(C)(C)OC[C@@H]1COCc2ccccc2CN1S(=O)(=O)c1cccc2cccnc12	< 500 nM
COc1ccc(Cl)cc1S(=O)(=O)N1Cc2ccccc2COCC1Cc1ccccc1 (stereo not shown)	< 500 nM
Cn1cnc(S(=O)(=O)N2Cc3ccccc3COCC2Cc2ccccc2)c1Cl (stereo not shown)	> 2000 nM
COc1ccc2c(c1)CN(S(=O)(=O)c1ccccc1OC)C(Cc1ccccc1)COC2 (stereo not shown)	> 2000 nM
CCOc1ccc(F)cc1S(=O)(=O)N1Cc2cccnc2COC[C@H]1COC(C)(C)C	500 to 2000 nM

Ask | Could you please provide reported IC50 for O=S(=O)(c1c(Cl)ccc2nonc12)N1Cc2ccccc2COCC1Cc1ccccc1 (stereo not shown) ? Thanks!
Reply | 500 to 2000 nM

Ask | Could you please provide reported IC50 for "O=S(=O)(c1cccc2cccnc12)N1Cc2ccccc2COC[C@H]1COCC1CCC1" ? Thanks!
Reply | 500 to 2000 nM

###

TARGET: RORγ ligand binding domain (LBD) (Homo sapiens)
METHOD: TR-FRET Activity Assay (RORγ-LBD / coactivator peptide interaction)
SETUP_CONDITIONS: Table 2; read-out: RORγ activity in the TR-FRET Activity Assay (IC50 FRET), Group
Each entry below carries its recorded IC50.

MOLECULE	IC50
O=S(=O)(c1cccc2cccnc12)N1Cc2cccc(O)c2COCC1Cc1ccccc1 (stereo not shown)	> 2000 nM

Ask | Could you please provide reported IC50 for "O=S(=O)(c1cccc2cccnc12)N1Cc2ccccc2COC[C@H]1Cn1cccn1" ? Thanks!
Reply | > 2000 nM

Ask | Could you please provide reported IC50 for "COCCOC[C@@H]1COCc2ccccc2CN1S(=O)(=O)c1cccc2cccnc12" ? Thanks!
Reply | > 2000 nM

Ask | Could you please provide reported IC50 for O=S(=O)(c1ccccc1F)N1Cc2ccccc2COCC1Cc1ccccc1 (stereo not shown) ? Thanks!
Reply | < 500 nM

Ask | Could you please provide reported IC50 for O=S(=O)(c1cccc2cccnc12)N1Cc2ccccc2COCC1Cc1ccccc1 (stereo not shown) ? Thanks!
Reply | < 500 nM

Ask | Could you please provide reported IC50 for O=S(=O)(c1cccc2nsnc12)N1Cc2ccccc2COCC1Cc1ccccc1 (stereo not shown) ? Thanks!
Reply | < 500 nM

Ask | Could you please provide reported IC50 for COc1ccccc1S(=O)(=O)N1Cc2ccc(F)cc2COCC1Cc1ccccc1 (stereo not shown) ? Thanks!
Reply | > 2000 nM

Ask | Could you please provide reported IC50 for "O=S(=O)(c1cccc2cccnc12)N1Cc2ccccc2COC[C@H]1CC1CC1" ? Thanks!
Reply | < 500 nM

Ask | Could you please provide reported IC50 for O=S(=O)(c1cc(Cl)ccc1F)N1Cc2ccccc2COCC1Cc1ccccc1 (stereo not shown) ? Thanks!
Reply | < 500 nM

Ask | Could you please provide reported IC50 for N#Cc1ccc(Cl)cc1S(=O)(=O)N1Cc2ccccc2COCC1Cc1ccccc1 (stereo not shown) ? Thanks!
Reply | < 500 nM

Ask | Could you please provide reported IC50 for O=S(=O)(c1ccccc1C(F)(F)F)N1Cc2ccccc2COCC1Cc1ccccc1 (stereo not shown) ? Thanks!
Reply | 500 to 2000 nM

Ask | Could you please provide reported IC50 for COc1cccc(CC2COCc3ccccc3CN2S(=O)(=O)c2cccc3cccnc23)c1 (stereo not shown) ? Thanks!
Reply | < 500 nM

Ask | Could you please provide reported IC50 for COc1cccc(S(=O)(=O)N2Cc3ccccc3COCC2Cc2ccccc2)c1 (stereo not shown) ? Thanks!
Reply | 500 to 2000 nM

###

Each entry below carries its recorded IC50.
TARGET: RORγ ligand binding domain (LBD) (Homo sapiens, UniProt P51449)
METHOD: TR-FRET Activity Assay (RORγ-LBD / coactivator peptide interaction)
SETUP_CONDITIONS: Table 2; read-out: RORγ activity in the TR-FRET Activity Assay (IC50 FRET), Group

COMPOUND	MEASURED
COc1ccccc1S(=O)(=O)N1Cc2cccc(OC)c2COCC1Cc1ccccc1 (stereo not drawn)	500 to 2000 nM
CCC(C)CC1COCc2ccccc2CN1S(=O)(=O)c1cccc2cccnc12 (stereo not drawn)	< 500 nM
CC(C)(C)OC[C@@H]1COCc2ncccc2CN1S(=O)(=O)c1cccc2cccnc12	> 2000 nM
O=S(=O)(c1cc(C(F)(F)F)ccc1F)N1Cc2ccccc2COCC1Cc1ccccc1 (stereo not drawn)	< 500 nM
COc1ccccc1S(=O)(=O)N1Cc2ccccc2CS(=O)(=O)CC1Cc1ccccc1 (stereo not drawn)	> 2000 nM

Ask | Could you please provide reported IC50 for COc1ccc(F)cc1S(=O)(=O)N1Cc2ccccc2COCC1Cc1ccccc1 (stereo not drawn) ? Thanks!
Reply | < 500 nM

Ask | Could you please provide reported IC50 for COc1ccccc1S(=O)(=O)N1Cc2ccccc2COCC1Cc1ccccc1 (stereo not drawn) ? Thanks!
Reply | < 500 nM

Ask | Could you please provide reported IC50 for "COC[C@@H]1COCc2ccccc2CN1S(=O)(=O)c1cccc2cccnc12" ? Thanks!
Reply | > 2000 nM

Ask | Could you please provide reported IC50 for COC(=O)c1ccccc1S(=O)(=O)N1Cc2ccccc2COCC1Cc1ccccc1 (stereo not drawn) ? Thanks!
Reply | 500 to 2000 nM

Ask | Could you please provide reported IC50 for "O=S(=O)(c1ccccc1OC(F)(F)F)N1Cc2nccn2CCC[C@H]1Cc1ccccc1" ? Thanks!
Reply | 500 to 2000 nM

Ask | Could you please provide reported IC50 for "O=S(=O)(c1cccc2cccnc12)N1Cc2ccccc2COC[C@H]1COCc1ccccc1" ? Thanks!
Reply | 500 to 2000 nM

Ask | Could you please provide reported IC50 for "O=S(=O)(c1ccccc1OC(F)(F)F)N1Cc2nncn2CCC[C@H]1Cc1ccccc1" ? Thanks!
Reply | 500 to 2000 nM

Ask | Could you please provide reported IC50 for COc1ccccc1S(=O)(=O)N1Cc2c(C#N)cccc2COCC1Cc1ccccc1 (stereo not drawn) ? Thanks!
Reply | > 2000 nM

Ask | Could you please provide reported IC50 for "O=S(=O)(c1cccc2cccnc12)N1Cc2ccccc2COC[C@H]1CN1CCCCC1" ? Thanks!
Reply | > 2000 nM

Ask | Could you please provide reported IC50 for "CC(C)(O)C[C@@H]1COCc2ccccc2CN1S(=O)(=O)c1cccc2cccnc12" ? Thanks!
Reply | > 2000 nM

Ask | Could you please provide reported IC50 for "O=S(=O)(c1cccc2cccnc12)N1Cc2cccnc2COC[C@H]1Cc1ccccc1" ? Thanks!
Reply | < 500 nM

Ask | Could you please provide reported IC50 for COc1ccccc1S(=O)(=O)N1Cc2ccccc2COCC1Cc1cccc(-c2cncnc2)c1 (stereo not drawn) ? Thanks!
Reply | > 2000 nM

Ask | Could you please provide reported IC50 for COc1ccc(S(=O)(=O)N2Cc3ccccc3COCC2Cc2ccccc2)cc1 (stereo not drawn) ? Thanks!
Reply | > 2000 nM
